Listed here: items and their measured EC50.
Biological target: Nociceptin receptor (Homo sapiens, UniProt P41146)
Sequence (P41146 whole entry): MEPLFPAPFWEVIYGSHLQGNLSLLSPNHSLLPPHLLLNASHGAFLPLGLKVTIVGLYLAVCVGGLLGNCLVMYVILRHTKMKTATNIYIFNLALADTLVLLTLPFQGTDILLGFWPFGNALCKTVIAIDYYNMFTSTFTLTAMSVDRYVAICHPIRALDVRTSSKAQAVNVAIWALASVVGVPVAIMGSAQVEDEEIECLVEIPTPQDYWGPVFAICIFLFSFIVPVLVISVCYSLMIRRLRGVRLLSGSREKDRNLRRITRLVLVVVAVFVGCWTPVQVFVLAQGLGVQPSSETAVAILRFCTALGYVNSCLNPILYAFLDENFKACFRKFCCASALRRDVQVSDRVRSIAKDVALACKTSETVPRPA
Test: Agonist activity at NOP (unknown origin) expressed in HEK293 cell membranes co-expressing Gbeta1-RGFP protein assessed as induction of G protein activation incubated for 15 mins by BRET assay
Assay type: cell-based
readout_kind: EC50 (nM)

- substance: "H-FGGFVGARKSARK-NH2"
  readout_kind: "EC50"
  data_value: 11.5
- substance: "H-FGGFTAARKSARK-NH2"
  readout_kind: "EC50"
  data_value: 21.9
- substance: "H-FGGFAGARKSARK-NH2"
  readout_kind: "EC50"
  data_value: 75.9
- substance: "H-FGGFNGARKSARK-NH2"
  readout_kind: "EC50"
  data_value: 9.33
- substance: "H-FGAFTGARKSARK-NH2"
  readout_kind: "EC50"
  data_value: 13.2

Origin of values: ChEMBL document CHEMBL4665800
